- TEST: Tolerability in Balb/c mice, body and organ weights (Example 12)
- Format: in vivo
- CONDITION SUMMARY: male Balb/c mice, 50 mg/kg s.c. twice a week for four weeks (8 treatments), end of study (day 26)
- Protocol: Groups of male Balb/c mice at 6-7 weeks of age (obtained from Taconic) were injected subcutaneously twice a week for four weeks (for a total of 8 treatments) with 50 mg/kg of modified oligonucleotides. One group of male Balb/c mice was injected with PBS. Mice were euthanized on day 26 post start of treatment (24 hours following the final administration). Body weights of Balb/c mice were measured at the end of the study, and the average body weight for each group is presented in the table below. […]
Strand notation (5' to 3'): a small letter for the sugar, then the base; units joined by * are phosphorothioate-linked, units joined directly phosphodiester-linked; [ ] holds rarer units or linkages, { } end groups; capitals alone tell only the bases. k = constrained ethyl (cEt); [5mC] = 5-methylcytosine; d = 2'-deoxy (DNA)
Each entry below lists one item and its recorded Kidney weight value.

The following substances have reported results that may help.
958729 (kG*kT*k[5mC]*dA*dG*dT*dT*dA*dT*d[5mC]*d[5mC]*dT*dA*kT*k[5mC]*kT; antisense) [compound 958729] :: 0.24 g
958736 (kG*kT*kG*dA*dT*dA*dT*dG*dG*dA*dT*dT*d[5mC]*kT*kG*kT; antisense) [compound 958736] :: 0.39 g
958721 (kG*kT*kA*dG*dT*dA*dT*dA*dA*dT*dG*dA*dG*kT*kT*kA; antisense) [compound 958721] :: 0.33 g
958499 (ATTAGAGTATGTGGCA; 3-10-3 cEt gapmer, further chemistry not given here) [compound 958499] :: 0.32 g
958509 (kA*kT*kG*dT*dT*dA*dT*dG*dT*dT*dT*dG*dG*kG*kT*kG; antisense) [compound 958509] :: 0.27 g

# input substance: 958498 (kG*kA*kG*dT*dA*dT*dG*dT*dG*dG*d[5mC]*dA*dA*kT*kA*kA; antisense) [compound 958498] ; wanted: its Kidney weight
0.45 g

# input substance: 958590 (kA*kG*kG*dT*dA*dT*dA*dA*d[5mC]*dT*dG*dG*dG*k[5mC]*kA*kA) [compound 958590] ; wanted: its Kidney weight
0.40 g

# input substance: 958375 (antisense kA*kA*kA*dG*d[5mC]*d[5mC]*dT*dT*dA*dG*dA*dG*dT*k[5mC]*kA*kA) [compound 958375] ; wanted: its Kidney weight
0.39 g

###

- Tested on: Yap1 mRNA
- TEST: Dose-dependent inhibition of human Yap1 in A-431 cells (Example 8, 10,000 cells per well, RTS4814)
- Assay type: cell-based
- CONDITION SUMMARY: 125.0 nM; A-431 cells, 10,000 cells per well, free uptake, approximately 48 hours, RTS4814
Strand notation (5' to 3'): a small letter for the sugar, then the base; units joined by * are phosphorothioate-linked, units joined directly phosphodiester-linked; [ ] holds rarer units or linkages, { } end groups; capitals alone tell only the bases. k = constrained ethyl (cEt); [5mC] = 5-methylcytosine; d = 2'-deoxy (DNA)
Each entry below lists one item and its recorded Yap1 mRNA, % UTC value.

1075785 (k[5mC]*kA*kT*dT*dT*dT*dA*dT*dA*dG*dG*dG*d[5mC]*k[5mC]*kA*kT; antisense) [compound 1075785] :: 7 % UTC

# input substance: 1074477 (kG*kT*kT*d[5mC]*d[5mC]*dG*dA*d[5mC]*dA*dA*dA*dA*d[5mC]*k[5mC]*kA*kA; antisense) [compound 1074477] ; wanted: its Yap1 mRNA, % UTC
48 % UTC

# input substance: 1074798 (kG*k[5mC]*kT*dT*dT*dG*dG*dA*dA*dG*dA*dT*d[5mC]*kT*kG*kA) [compound 1074798] ; wanted: its Yap1 mRNA, % UTC
12 % UTC

# input substance: 1075207 (k[5mC]*kT*kA*dT*dT*dA*dA*dA*dT*dG*dA*dG*d[5mC]*kA*k[5mC]*k[5mC]; antisense) [compound 1075207] ; wanted: its Yap1 mRNA, % UTC
51 % UTC

# input substance: 1075824 (kG*kT*kA*dT*dT*dA*dG*dA*dG*dG*dT*dT*d[5mC]*k[5mC]*kA*kG; antisense) [compound 1075824] ; wanted: its Yap1 mRNA, % UTC
10 % UTC

# input substance: 1075876 (antisense kG*kT*kA*dT*dT*dT*dA*dT*dG*dA*dT*dG*dA*kT*kT*k[5mC]) [compound 1075876] ; wanted: its Yap1 mRNA, % UTC
20 % UTC

###

- Test system: Yap1 mRNA
- TEST: Antisense inhibition of human Yap1 in A-431 cells by cEt gapmers, single dose (Example 3, RTS36584)
- Format: cell-based
- CONDITION SUMMARY: Table 8; A-431 cells, 5,000 cells per well, free uptake, 2,000 nM, approximately 48 hours; RTS36584; normalized to RIBOGREEN; Yap1 mRNA relative to untreated control cells
Strand notation (5' to 3'): a small letter for the sugar, then the base; units joined by * are phosphorothioate-linked, units joined directly phosphodiester-linked; [ ] holds rarer units or linkages, { } end groups; capitals alone tell only the bases. k = constrained ethyl (cEt); [5mC] = 5-methylcytosine; d = 2'-deoxy (DNA)
YAP1 (% UTC) below 50 % UTC gives FALSE; YAP1 (% UTC) at or above it gives TRUE.

Answered cases to consult:
958397 (antisense k[5mC]*kA*kG*dG*d[5mC]*dT*dA*dT*dT*dA*dA*dG*d[5mC]*kT*kG*kT) [Compound 958397] :: TRUE
958350 (kT*k[5mC]*k[5mC]*dG*dA*dG*dT*d[5mC]*d[5mC]*d[5mC]*d[5mC]*dG*d[5mC]*kG*kG*kA; antisense) [Compound 958350] :: TRUE
958407 (antisense kA*kA*kT*dA*d[5mC]*dT*dG*dA*dT*d[5mC]*dT*dG*d[5mC]*kA*kG*k[5mC]) [Compound 958407] :: FALSE
958385 (antisense kG*k[5mC]*kG*d[5mC]*dG*d[5mC]*dG*d[5mC]*dA*dT*dT*dG*dT*kG*k[5mC]*kA) [Compound 958385] :: TRUE
715483 (antisense k[5mC]*kT*k[5mC]*dT*dT*dT*dG*dG*dA*dA*dA*d[5mC]*d[5mC]*kA*kT*kT) [Compound 715483] :: FALSE

Exam item: decide whether the reported YAP1 (% UTC) for 958363 (antisense kT*kG*kA*dG*d[5mC]*dT*d[5mC]*dG*dA*dA*d[5mC]*dA*dT*kG*k[5mC]*kT) [Compound 958363] is at least 50 % UTC.
TRUE

Exam item: decide whether the reported YAP1 (% UTC) for 958373 (antisense kA*kG*kG*dT*dG*d[5mC]*dT*dA*dG*d[5mC]*dT*dG*dG*kT*kG*k[5mC]) [Compound 958373] is at least 50 % UTC.
FALSE

Exam item: decide whether the reported YAP1 (% UTC) for 958357 (antisense k[5mC]*kG*kG*d[5mC]*dT*dT*dG*dA*dA*dG*dA*dA*dG*kG*kA*kG) [Compound 958357] is at least 50 % UTC.
FALSE

Exam item: decide whether the reported YAP1 (% UTC) for 958353 (antisense kT*k[5mC]*kG*dG*dT*d[5mC]*dT*d[5mC]*d[5mC]*dG*dA*dG*dT*k[5mC]*k[5mC]*k[5mC]) [Compound 958353] is at least 50 % UTC.
FALSE

Exam item: decide whether the reported YAP1 (% UTC) for 958375 (antisense kA*kA*kA*dG*d[5mC]*d[5mC]*dT*dT*dA*dG*dA*dG*dT*k[5mC]*kA*kA) [Compound 958375] is at least 50 % UTC.
FALSE

###

- TEST: Tolerability in Sprague-Dawley rats, body and organ weights (Example 20)
- Format: in vivo
- CONDITION SUMMARY: male Sprague-Dawley rats, 50 mg/kg s.c. weekly for 6 weeks (7 doses), end of study
Strand notation (5' to 3'): a small letter for the sugar, then the base; units joined by * are phosphorothioate-linked, units joined directly phosphodiester-linked; [ ] holds rarer units or linkages, { } end groups; capitals alone tell only the bases. k = constrained ethyl (cEt); [5mC] = 5-methylcytosine; d = 2'-deoxy (DNA)
RECORDED ENDPOINT: Liver weight (g)
Report the value in g with no unit label.

958499 (ATTAGAGTATGTGGCA; 3-10-3 cEt gapmer, further chemistry not given here) [compound 958499] :: 14

# input substance: 1097224 (k[5mC]*kT*k[5mC]*dT*dT*dA*dT*dA*dT*dG*dG*dT*dT*kT*kT*kG; antisense) [compound 1097224] ; wanted: its Liver weight
13

# input substance: 1076187 (kG*kA*kT*dT*dT*dA*dG*dG*dA*dT*dG*d[5mC]*dA*kT*kG*kG; antisense) [compound 1076187] ; wanted: its Liver weight
17
